# tested.on: human adenosine A2a receptor (Homo sapiens)
# Sequence (P29274 whole entry): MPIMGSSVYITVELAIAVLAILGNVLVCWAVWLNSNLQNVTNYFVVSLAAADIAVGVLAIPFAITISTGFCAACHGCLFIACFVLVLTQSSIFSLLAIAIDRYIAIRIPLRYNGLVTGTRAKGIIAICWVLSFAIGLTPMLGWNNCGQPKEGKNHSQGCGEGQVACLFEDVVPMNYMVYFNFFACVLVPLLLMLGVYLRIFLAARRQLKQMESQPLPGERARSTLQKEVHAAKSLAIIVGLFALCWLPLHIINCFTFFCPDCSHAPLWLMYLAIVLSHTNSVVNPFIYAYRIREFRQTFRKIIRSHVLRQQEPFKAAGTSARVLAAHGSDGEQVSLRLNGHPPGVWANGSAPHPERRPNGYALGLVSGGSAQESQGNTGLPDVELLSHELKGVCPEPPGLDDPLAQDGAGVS
measurement.name: pKi
API: returns pKi as number; meaning -log10 of concentration in mol/L.

Exam item: Form field: reported pKi of C#CCn1c(Br)nc2c(N)nc(C#CCCCCCC)nc21
Marked response: 9.24
